Sourced from patent US10301304B2

Target: CYP3A4 (Homo sapiens, UniProt P08684)
Sequence (P08684 whole entry): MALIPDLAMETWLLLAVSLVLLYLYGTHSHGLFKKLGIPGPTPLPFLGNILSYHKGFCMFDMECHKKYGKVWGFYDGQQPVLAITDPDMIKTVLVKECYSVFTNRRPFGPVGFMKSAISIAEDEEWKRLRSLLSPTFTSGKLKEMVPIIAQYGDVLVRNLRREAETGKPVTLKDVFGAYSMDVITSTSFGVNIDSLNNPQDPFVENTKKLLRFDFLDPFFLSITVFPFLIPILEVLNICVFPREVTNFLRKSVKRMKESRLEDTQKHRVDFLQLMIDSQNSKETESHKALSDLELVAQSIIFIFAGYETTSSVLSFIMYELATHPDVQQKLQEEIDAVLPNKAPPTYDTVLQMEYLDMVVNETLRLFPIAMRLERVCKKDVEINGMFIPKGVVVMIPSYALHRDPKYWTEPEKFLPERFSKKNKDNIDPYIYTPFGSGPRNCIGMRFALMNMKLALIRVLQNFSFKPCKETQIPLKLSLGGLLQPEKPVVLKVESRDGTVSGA
Assay: Inhibition of CYP Enzymes in Human Liver Microsomes
Assay type: in vitro ADME
Design: evaluated in human liver microsomes using the IC50 shift assay; from tissue; host or cells: human liver microsomes
Conditions: CYP3A4, 50 μM Testosterone
readout-kind: IC50

Input: Please look up its IC50: Cc1cc(-c2cncc([C@@H](O)C(F)(F)F)c2)nc2c1C(=O)N(c1cnn(CC(F)F)c1)C2(C)C [Compound 1]
Output: > 75 µM

---

Experiment: Oral pharmacokinetics / bioavailability
Type: in vivo
Conditions: in vivo; Dog, single oral, 3 mg/kg nominal, spray-dried dispersion
Source text: The bioavailability in monkey (greater than 100%) may be explained by the tenfold difference between the IV and oral doses. Compound 1 was rapidly absorbed in all species, with maximum systemic concentration observed within approximately one to three hours of dosing.
readout-kind: MRT (h)
Give bare numbers, in h.

Input: Would you mind telling me what MRT value was observed for Cc1cc(-c2cncc([C@@H](O)C(F)(F)F)c2)nc2c1C(=O)N(c1cnn(CC(F)F)c1)C2(C)C ?
Output: 9

---

Assay: Intravenous bolus pharmacokinetics
Type: in vivo, Rat
Conditions: rat, plasma, iv, 0.5 mg/kg, Intravenous bolus, 0.5 mg/kg nominal dose; read-out: Rat IV AUC
Quick rule: AUC of at least 600 ng·h/mL means t, below that means f.

Take a look at these entries with their results.
compound="Cc1cc(-c2cncc(OCC(F)(F)F)c2)nc2c1C(=O)N(c1cnn(CC(F)F)c1)C2(C)C [D, reference compound]" assigned_label=t
compound="COc1cncc(-c2cc(C)c3c(n2)C(C)(C)N(c2cnn(CC(F)F)c2)C3=O)c1 [Compound A, reference compound]" assigned_label=f
compound=Cc1cc(-c2cncc([C@@H](O)C(F)(F)F)c2)nc2c1C(=O)N(c1cnn(CC(F)F)c1)C2(C)C assigned_label=t

Turning now to a further record.
Input: Test whether the compound CCOc1cncc(-c2cc(C)c3c(n2)C(C)(C)N(c2cnn(CC(F)F)c2)C3=O)c1 [B, reference compound] records AUC of 600 ng·h/mL or higher.
Output: f

---

Test: Tissue Distribution in Rats
Assay type: in vivo, rat
Conditions: male, spleen; rat, 5 mg/kg oral, 2 hr post dose; read-out: Tissue to Plasma Ratio, Spleen
readout-kind: Kp at 2 h
Numbers only.

Input: Name the reported Kp at 2 h value associated with the compound Cc1cc(-c2cncc([C@@H](O)C(F)(F)F)c2)nc2c1C(=O)N(c1cnn(CC(F)F)c1)C2(C)C
Output: 1.15

---

Experiment: Permeability in MDCK wild-type cell line
Type: in vitro ADME, canine
Conditions: dog, MDCK, MDCK-WT, A > B
readout-kind: Papp A→B at 1 h, 1 μM (×10⁻⁶ cm/s)
Answers are plain numbers, in ×10⁻⁶ cm/s.

Input: Which Papp A→B at 1 h, 1 μM is reported for this molecule? Cc1cc(-c2cncc([C@@H](O)C(F)(F)F)c2)nc2c1C(=O)N(c1cnn(CC(F)F)c1)C2(C)C
Output: 33

---

Assay: Oral pharmacokinetics / bioavailability
Type: in vivo, Rat
Settings: in vivo; Rat, single oral, 1 mg/kg nominal, spray-dried dispersion
readout-kind: Tmax (h)
One number for each entry, in h.

Input: Requested read-out: Tmax. Entry: Cc1cc(-c2cncc([C@@H](O)C(F)(F)F)c2)nc2c1C(=O)N(c1cnn(CC(F)F)c1)C2(C)C [Compound 1]
Output: 3.33

---

Test: Oral pharmacokinetics / bioavailability
Assay type: in vivo
Details: in vivo; Monkey, single oral, 5 mg/kg nominal, spray-dried dispersion
readout-kind: MRT (h)
One number for each entry, in h.

Input: Dear colleague, I am looking for the recorded MRT of the following molecule: Cc1cc(-c2cncc([C@@H](O)C(F)(F)F)c2)nc2c1C(=O)N(c1cnn(CC(F)F)c1)C2(C)C
Output: 10.5

---

Experiment: Intravenous bolus pharmacokinetics
Type: in vivo
Details: in vivo; Monkey, single IV bolus, 0.5 mg/kg nominal
readout-kind: AUC

Input: Entry Cc1cc(-c2cncc([C@@H](O)C(F)(F)F)c2)nc2c1C(=O)N(c1cnn(CC(F)F)c1)C2(C)C has what AUC?
Output: 700 ng·h/mL

---

Experiment: Tissue Distribution in Rats
Type: in vivo, rat
Conditions: male, brain; rat, 5 mg/kg oral, 0.5 hr post dose; read-out: Tissue to Plasma Ratio, Brain
Protocol: Compound 1 distributed well into most tissues after an oral dose of 5 mg/kg administered to male rats. […] The tissue to plasma ratio followed the trend of liver>kidney>heart>lung>spleen>brain>CSF. The elimination kinetics of Compound 1 in each examined organ followed plasma kinetics. There was no evidence for tissue accumulation of Compound 1 after a single dose administration.
readout-kind: Kp at 0.5 h

Input: Any idea what Kp at 0.5 h was measured for Cc1cc(-c2cncc([C@@H](O)C(F)(F)F)c2)nc2c1C(=O)N(c1cnn(CC(F)F)c1)C2(C)C ?
Output: 0.04

---

Target: CYP2C19 (Homo sapiens, UniProt P33261)
Sequence (P33261 whole entry): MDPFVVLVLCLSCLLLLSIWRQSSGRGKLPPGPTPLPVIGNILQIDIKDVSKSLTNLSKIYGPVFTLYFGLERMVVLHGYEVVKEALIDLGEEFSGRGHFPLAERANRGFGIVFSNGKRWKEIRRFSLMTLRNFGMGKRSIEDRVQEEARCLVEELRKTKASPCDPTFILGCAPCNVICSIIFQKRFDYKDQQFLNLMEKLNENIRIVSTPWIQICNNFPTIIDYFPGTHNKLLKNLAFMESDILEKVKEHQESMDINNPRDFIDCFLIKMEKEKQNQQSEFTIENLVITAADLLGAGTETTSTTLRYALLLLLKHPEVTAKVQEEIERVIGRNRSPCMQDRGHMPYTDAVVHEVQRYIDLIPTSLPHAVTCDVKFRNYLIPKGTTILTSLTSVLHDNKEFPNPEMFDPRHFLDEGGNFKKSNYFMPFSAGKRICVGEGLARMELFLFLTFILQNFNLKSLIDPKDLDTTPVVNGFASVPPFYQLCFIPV
readout-kind: pIC50
Numbers only, as −log10 of the molar value.

Input: What pIC50 value was documented for this compound, Cc1cc(-c2cncc([C@@H](O)C(F)(F)F)c2)nc2c1C(=O)N(c1cnn(CC(F)F)c1)C2(C)C ?
Output: 4.68

---

Test: Tissue Distribution in Rats
Assay type: in vivo, rat
Conditions: male, kidney; rat, 5 mg/kg oral, 48 hr post dose; read-out: Tissue to Plasma Ratio, Kidney
readout-kind: Kp at 48 hr
One number for each entry.

Input: Quick one: Kp at 48 hr for Cc1cc(-c2cncc([C@@H](O)C(F)(F)F)c2)nc2c1C(=O)N(c1cnn(CC(F)F)c1)C2(C)C ?
Output: 4.76

---

Biological target: CYP2D6 (Homo sapiens)
Sequence (P10635 whole entry): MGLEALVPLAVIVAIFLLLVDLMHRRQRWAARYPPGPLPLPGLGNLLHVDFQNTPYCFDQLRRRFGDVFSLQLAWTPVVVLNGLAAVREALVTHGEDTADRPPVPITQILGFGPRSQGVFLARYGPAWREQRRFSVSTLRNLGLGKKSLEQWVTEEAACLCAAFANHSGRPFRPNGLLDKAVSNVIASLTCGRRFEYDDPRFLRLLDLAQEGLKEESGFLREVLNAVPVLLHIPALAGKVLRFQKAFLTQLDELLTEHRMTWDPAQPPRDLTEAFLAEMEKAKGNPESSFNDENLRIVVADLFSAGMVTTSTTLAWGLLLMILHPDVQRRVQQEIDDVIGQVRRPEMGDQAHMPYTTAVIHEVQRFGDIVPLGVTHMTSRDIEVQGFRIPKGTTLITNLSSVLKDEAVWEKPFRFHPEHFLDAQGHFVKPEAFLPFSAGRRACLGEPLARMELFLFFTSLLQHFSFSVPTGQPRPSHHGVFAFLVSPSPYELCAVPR
readout-kind: IC50
Kindly report the value followed by its unit.

Input: Look up IC50: Cc1cc(-c2cncc([C@@H](O)C(F)(F)F)c2)nc2c1C(=O)N(c1cnn(CC(F)F)c1)C2(C)C
Output: 64 µM

---

Assay: Tissue Distribution in Rats
Type: in vivo, rat
Conditions: male, heart; rat, 5 mg/kg oral, 24 hr post dose; read-out: Tissue to Plasma Ratio, Heart
readout-kind: Kp at 24 hr
Answers are plain numbers.

Input: What value of Kp at 24 hr has been reported for the following compound? Cc1cc(-c2cncc([C@@H](O)C(F)(F)F)c2)nc2c1C(=O)N(c1cnn(CC(F)F)c1)C2(C)C
Output: 1.46

---

Assay: Permeability in Caco-2 cell line
Type: in vitro ADME
Settings: human, Caco-2, Caco-2, 5 μM, B > A
readout-kind: recovery at 1 h, 5 μM
Number first, unit second: that is the form wanted.

Input: For the molecule Cc1cc(-c2cncc([C@@H](O)C(F)(F)F)c2)nc2c1C(=O)N(c1cnn(CC(F)F)c1)C2(C)C , what recovery at 1 h, 5 μM is on record?
Output: 96%

---

Experiment: Tissue Distribution in Rats
Type: in vivo, rat
Conditions: male, kidney; rat, 5 mg/kg oral, 24 hr post dose; read-out: Tissue to Plasma Ratio, Kidney
Protocol: Compound 1 distributed well into most tissues after an oral dose of 5 mg/kg administered to male rats. […] The tissue to plasma ratio followed the trend of liver>kidney>heart>lung>spleen>brain>CSF. The elimination kinetics of Compound 1 in each examined organ followed plasma kinetics. There was no evidence for tissue accumulation of Compound 1 after a single dose administration.
readout-kind: Kp at 24 hr
Numbers only.

Input: I would be grateful if you could share the reported Kp at 24 hr for Cc1cc(-c2cncc([C@@H](O)C(F)(F)F)c2)nc2c1C(=O)N(c1cnn(CC(F)F)c1)C2(C)C .
Output: 3.03

---

Target: CYP3A4 (Homo sapiens)
Assay: Inhibition of CYP Enzymes in Human Liver Microsomes
Assay type: in vitro ADME
Design: evaluated in human liver microsomes using the IC50 shift assay; from tissue; host or cells: human liver microsomes
Details: CYP3A4, 2.5 μM Midazolam
Procedure: Inhibition assays were conducted with selective CYP probes for each CYP enzyme at specific concentrations of substrate (close to its dissociation constant (Km) value). Compound 1 was a moderate inhibitor of CYP 1A2, 2B6 and 2C8; […]
readout-kind: pIC50
Answers are plain numbers, as −log10 of the molar value.

Input: Consider the molecule shown here: Cc1cc(-c2cncc([C@@H](O)C(F)(F)F)c2)nc2c1C(=O)N(c1cnn(CC(F)F)c1)C2(C)C What is its recorded pIC50?
Output: 4.72

---

Test: Oral pharmacokinetics / bioavailability
Type: in vivo
Details: in vivo; Dog, single oral, 3 mg/kg nominal, spray-dried dispersion
readout-kind: AUC (ng·h/mL)
Give bare numbers, in ng·h/mL.

Input: // AUC lookup, key: Cc1cc(-c2cncc([C@@H](O)C(F)(F)F)c2)nc2c1C(=O)N(c1cnn(CC(F)F)c1)C2(C)C [Compound 1]
Output: 9110

---

Assay: Intravenous bolus pharmacokinetics
Format: in vivo
Details: in vivo; Dog, single IV bolus, 0.5 mg/kg nominal
readout-kind: AUC
Enter the number, and then the unit.

Input: Can you share its AUC? I mean this compound: Cc1cc(-c2cncc([C@@H](O)C(F)(F)F)c2)nc2c1C(=O)N(c1cnn(CC(F)F)c1)C2(C)C
Output: 1900 ng·h/mL
